The reported numbers originate from patent US11597760.

target: human C5 (human); test: SPR, pH 5.8, 37C
Overview of reported pKd across a group of binders:
Reminder that pKd means the negative base-10 logarithm of the concentration expressed in mol/L.

// query Requested read-out: pKd. Entry: CFA0330 (antibody, V domains shown) VH: QSLEESGGDLVEPGASLTLTCTASGFSWNSGYDMCWVRQAPGKGLEWIACIYTGSSANTAYANWAKGRFTISKTSSTTVTLQMTGLTAADTATYFCARHDDYFFDLWGPGTLVTVSS VL: DVVMTQTPASVSESVGGTVTINCQASQSIGNNLAWYQQKPGQPPKLLIYDASNLASGVPSRFKGSRSGTEPTLTNTLTISGVQCADVATYYCQSGWYGNSYVAAFGGGTEVVVK
// result 9.74

// query Quick one: CFA0675 (antibody, V domains shown) VH: QSVEESGGRLVTPGTPLTLTCTVSGFSLSTYAMGWVRQAPGKGLEWIGTIDTGDNSFYANWAKGRFTISRTSTTVDLKITSPTAEDTATYFCARNDGSVYNLFNLWGPGTLVTVSS VL: DVVMTQTPASVSAAVGGTVTIKCQASENIYSALSWYQQKPGLRPRLLIYYASTLASGVPSRFKGSRSGTEFTLTISDLECADAASYYCQQYYDINSVDNTFGGGTKVVVE
// result 7.77

// query What do you have for CFA0672 (antibody, V domains shown) VH: QSVEESGGRLVTPGTPLTLTCTASGFSLSGNAINWVRQAPGKGLEWIGCIYTGSDTTYYATWAKGRFTISKTSTTVDLKIASPTTEDTATYFCARGSGLWGPGTLVTVSS VL: DVVMTQTPASVSAPVGGTVTIKCQASQNIYSLLAWYQQKPGQPPKLLIYHTSDLASGVPSRFRGSGSGTEFTLTISDLECADAATYYCQCTAYGSSDVGGTFGGGTTVVVE ?
// result 6.86
